Hi, quick share: literature Ki data for Amine oxidase [flavin-containing] A (Homo sapiens, UniProt P21397), several sources combined.
Numeric answer only, unit nM assumed.

Q: Record COC[C@H]1CN(c2ccc(OCC[C@@H](C)O)cc2)C(=O)O1 : what is its Ki with Amine oxidase [flavin-containing] A (Homo sapiens, UniProt P21397)?
Ans: 6.5

Q: Record COc1ccc(C(=O)N2N=C(c3cc(Br)ccc3O)C[C@@H]2c2ccc(C)cc2)cc1 : what is its Ki with Amine oxidase [flavin-containing] A (Homo sapiens, UniProt P21397)?
Ans: 79200

Q: Record N=C(N)N1N=C(c2ccccc2)CC1c1ccc(Cl)cc1 (centres undefined) : what is its Ki with Amine oxidase [flavin-containing] A (Homo sapiens, UniProt P21397)?
Ans: 150

Q: Record COc1ccccc1NC(=S)N1N=C(c2ccccc2)CC1c1ccccc1O (centres undefined) : what is its Ki with Amine oxidase [flavin-containing] A (Homo sapiens, UniProt P21397)?
Ans: 310

Q: Record COc1ccc(NC(=S)N2N=C(c3ccccc3)CC2c2ccccc2O)cc1 (centres undefined) : what is its Ki with Amine oxidase [flavin-containing] A (Homo sapiens, UniProt P21397)?
Ans: 170

Q: Record COc1ccc(C2=NN(C(=S)Nc3ccccc3)C(c3ccc(F)cc3)C2)cc1 (centres undefined) : what is its Ki with Amine oxidase [flavin-containing] A (Homo sapiens, UniProt P21397)?
Ans: 0.1

Q: Record O=C1O[C@@H](Cn2cc(F)nn2)CN1c1ccc(C2=CCS(=O)(=O)CC2)c(F)c1 : what is its Ki with Amine oxidase [flavin-containing] A (Homo sapiens, UniProt P21397)?
Ans: 500

Q: Record COc1cccc(NC(=S)N2N=C(c3ccccc3)CC2c2ccc(O)cc2)c1 (centres undefined) : what is its Ki with Amine oxidase [flavin-containing] A (Homo sapiens, UniProt P21397)?
Ans: 350

Q: Record Cc1ccccc1NC(=S)N1N=C(c2ccccc2)CC1c1ccc(O)cc1 (centres undefined) : what is its Ki with Amine oxidase [flavin-containing] A (Homo sapiens, UniProt P21397)?
Ans: 310

Q: Record NC(=O)N1N=C(c2ccccc2)CC1c1ccncc1 (centres undefined) : what is its Ki with Amine oxidase [flavin-containing] A (Homo sapiens, UniProt P21397)?
Ans: 7000

Q: Record COC[C@H]1CN(c2ccc(OCCCC(C)O)cc2)C(=O)O1 (some centres undefined) : what is its Ki with Amine oxidase [flavin-containing] A (Homo sapiens, UniProt P21397)?
Ans: 13

Q: Record CCc1cccc2c1S(=O)(=O)c1ccccc1O2 : what is its Ki with Amine oxidase [flavin-containing] A (Homo sapiens, UniProt P21397)?
Ans: 10

Q: Record COC[C@H]1CN(c2ccc(OCC(C)O)cc2)C(=O)O1 (some centres undefined) : what is its Ki with Amine oxidase [flavin-containing] A (Homo sapiens, UniProt P21397)?
Ans: 220

Q: Record O=C1O[C@@H](Cn2ccnn2)CN1c1ccc(C2=CCS(=O)(=O)CC2)c(F)c1 : what is its Ki with Amine oxidase [flavin-containing] A (Homo sapiens, UniProt P21397)?
Ans: 3400

Q: Record Cc1ccc(NC(=S)N2N=C(c3ccccc3)CC2c2ccc(O)cc2)cc1 (centres undefined) : what is its Ki with Amine oxidase [flavin-containing] A (Homo sapiens, UniProt P21397)?
Ans: 360

* * *

pKi: −log10 of the molar value.
Hi, quick share: literature pKi data for Amine oxidase [flavin-containing] A (Homo sapiens, UniProt P21397), several sources combined.

Q: Look at this molecule and give its reported pKi. O=C(CN[C@@H]1C[C@H]1c1cc(F)cc(F)c1OCc1cccnc1F)N1CCC2(CCNC2)CC1
Ans: < 3.60

Q: Look at this molecule and give its reported pKi. C#Cc1cn(C[C@H]2CN(c3ccc(C4=CCS(=O)(=O)CC4)c(F)c3)C(=O)O2)nn1
Ans: < 3.70

Q: Look at this molecule and give its reported pKi. Cc1ccc(-c2ncc(OCC3CCNCC3)cc2-c2ccc(C#N)cc2)cc1
Ans: < 4.30

Q: Look at this molecule and give its reported pKi. C[Si](C)(C)C#Cc1cn(C[C@H]2CN(c3ccc(C4=CCS(=O)(=O)CC4)c(F)c3)C(=O)O2)nn1
Ans: < 3.70
